Cited source: ChEMBL document CHEMBL1123824

Target: Adenosine receptor (Rattus norvegicus, UniProt P29276+P25099+P30543+P28647)
Assay: Ability to inhibit the binding of [3H]N6-phenylisopropyl adenosine to adenosine receptor in rat cerebral cortex membranes
Format: cell membranes, Membrane
outcomeMeasure: Ki (µM)

>>> assayvalue("CCCN1C(=O)C2NC(c3ccc(OCC(=O)NCCNC(=O)C(N)CC(N)=O)cc3)=NC2N(CCC)C1=O (centres undefined)")
0.0043
>>> assayvalue("CCCN1C(=O)C2NC(c3ccc(OCC(=O)NCCN)cc3)=NC2N(CCC)C1=O (centres undefined)")
0.0012

---

// endpoint Ki / system Substance-P receptor (Rattus norvegicus, UniProt P14600)
outcomeMeasure: Ki

>>> assayvalue("CCCN1C(=O)C2NC(c3ccc(OCC(=O)NCCN)cc3)=NC2N(CCC)C1=O (stereo not drawn)")
"> 10 µM"
>>> assayvalue("CNC(=O)Cc1ccc(Nc2ncnc3c2ncn3C2O[C@H](CO)[C@@H](O)[C@H]2O)cc1 (stereo partly drawn)")
"> 10 µM"
>>> assayvalue("CSCC[C@H](NC(=O)[C@H](CC(C)C)NC(=O)CNC(=O)[C@H](Cc1ccccc1)NC(=O)[C@@H](N)Cc1ccccc1)C(N)=O")
"> 10 µM"
